Biological target: T1, mouse GPRC5D (mouse, UniProt Q9JIL6 1-344)
T1 construct: whole, on cells; HEK293T-mGPRC5D cells; also called mGPRC5D; murine GPRC5D
T1 sequence (looked up): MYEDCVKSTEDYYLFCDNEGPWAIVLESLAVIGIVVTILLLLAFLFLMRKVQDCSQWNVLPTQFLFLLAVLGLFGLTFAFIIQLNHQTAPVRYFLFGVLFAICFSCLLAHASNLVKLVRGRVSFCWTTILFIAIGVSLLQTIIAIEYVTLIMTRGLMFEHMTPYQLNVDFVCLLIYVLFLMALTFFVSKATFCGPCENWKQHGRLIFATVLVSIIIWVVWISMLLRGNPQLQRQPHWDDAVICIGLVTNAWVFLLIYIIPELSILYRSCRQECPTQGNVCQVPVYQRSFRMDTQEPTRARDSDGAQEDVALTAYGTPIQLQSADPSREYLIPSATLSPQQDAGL
Assay: FACS, HEK293T-mGPRC5D cells
# reported MFI; entries follow
Keep it simple and answer with nothing but the number.

**Q:** Any idea what its MFI is? The binder is 89F11E3 (antibody, V domains shown, Mouse monoclonal antibody from hybridoma subclone) VH: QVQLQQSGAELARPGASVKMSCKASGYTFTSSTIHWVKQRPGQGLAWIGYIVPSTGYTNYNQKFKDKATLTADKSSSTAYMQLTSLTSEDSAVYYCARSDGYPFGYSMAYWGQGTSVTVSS VL: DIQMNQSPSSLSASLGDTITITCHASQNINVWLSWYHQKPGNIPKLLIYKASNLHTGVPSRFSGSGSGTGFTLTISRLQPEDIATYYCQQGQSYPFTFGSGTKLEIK
**A:** 1100

**Q:** Which value of MFI has been reported for 87A3G8 (antibody, V domains shown, Mouse monoclonal antibody from hybridoma subclone) VH: QVQLKESGPGLVAPSQSLSITCTVSGFSLSSYSVYWVRQPPGKGLEWLGVIWAGGSTNYNSALMSRLSINKDKSKSQVFLKMNSLQTDDSAIYYCAMRWLPRGLDFWGQGTSVTVSS VL: DIVMTQSHKFMSTSVGDRVSITCKASQDVGTAVAWYQQKPGQSPKLLIYWASTRHTGVPDRFTGSGSGTDFTLTISNVQSEDLADYFCQQYSTYYTFGGGTKLEIK in the records?
**A:** 178

**Q:** # lookup: MFI of ATG596 (antibody, V domains shown, Human IgG1; also called benchmark antibody ATG596; positive human IgG1 control antibody) VH: QVQLVQSGAEVKKPGASVKVSCKASGYSFTGYTMNWVRQAPGQGLEWMGLINPYNSDTNYAQKLQGRVTMTTDTSTSTAYMELRSLRSDDTAVYYCARVALRVALDYWGQGTLVTVSS VL: DIQMTQSPSSLSASVGDRVTITCKASQNVATHVGWYQQKPGKAPKRLIYSASYRYSGVPSRFSGSGSGTEFTLTISNLQPEDFATYYCQQYNRYPYTFGQGTKLEIK
**A:** 12400

**Q:** Consider the binder shown here: 108C4C12 (antibody, V domains shown, Mouse monoclonal antibody from hybridoma subclone) VH: EVQLQQSGPELVKPGASVKMSCKASGYTFTSYVIHWVKQKTGQGLEWIGYFNPYNDGTKYNEEFKGKATLTSDKSSNTAYMELNSLTSDDSAVYFCARGGVRRYFDVWGAGTTVTVSS VL: DIQMTQSPSSLSASLGERVSLTCRASQDIGSNLNWLQQEPDGTIKRLIYATFGLDSGVPKRFSGSRSGSDYSLTISSLESEDFVDYYCQQYASFPYTFGGGTKLEIK What is its recorded MFI?
**A:** 274

Source listed as patent US20250368734A1.
